Protocol notes: gradient 5% acetonitrile 3 min, to 50% in 2 min, to 85% in 15 min, held 3 min, 100 µL/min
Experimental conditions: column: Zorbax Extend-C18 2.1 x 50 mm; eluents: water / acetonitrile, 0.1% formic acid
Metric name: RP-LC retention time (s)
Give bare numbers, in s.

Worked examples, 2 compounds total:
# Compound, Units, Data value
data = [
    ("CC(C)(C)NC(=O)N1CCC(N2CC3(CCCCC3)C2c2ccncc2)CC1 (stereo not drawn)", "s", 611),
    ("COc1ccc(-c2nnc3n2CCN(Cc2cn(C)nc2C)C3)cc1", "s", 552),
]

For the compound O=C(NCC1CC1)C1CCN(c2nc3ccsc3c(=O)n2-c2ccccc2)CC1 , give its measured RP-LC retention time value.
747

---

Protocol notes: gradient 5% acetonitrile 3 min, to 50% in 2 min, to 85% in 15 min, held 3 min, 100 µL/min
Experimental conditions: column: Zorbax Extend-C18 2.1 x 50 mm; eluents: water / acetonitrile, 0.1% formic acid
Output Y for RP-LC retention time not less than 700 s; output N otherwise.

Reference set (9 entries):
# Compound, Label value
data = [
    ("CCc1nnc(NC(=O)CSc2nnc(NC(=O)NC(C)(C)C)s2)s1", "N"),
    ("O=S(=O)(NCc1ccc(Br)cc1)c1ccc2c(c1)-c1oncc1CO2", "Y"),
    ("CC(C)Cn1c(=O)c(N2CCN(S(=O)(=O)c3cccc(F)c3)CC2)nc2ccncc21", "N"),
    ("CC(C)n1c(=O)oc2cc(-c3noc(-c4ccc(C(F)(F)F)cc4)n3)ccc21", "Y"),
    ("Cc1ccc(CNC(=O)C2(C)CN(S(C)(=O)=O)CC(=O)N2c2ccc(Cl)cc2)cc1 (stereo not given)", "Y"),
    ("C=CCn1c(SCC(=O)N2CCC(C(N)=O)CC2)nnc1-c1sc2ncccc2c1N", "N"),
    ("CCCN(C)c1nccnc1OC1CCN(C(=O)CC(C)C)C1 (stereo not given)", "Y"),
    ("COCCn1c(SCc2nc(-c3ccc(F)cc3)no2)nc2cc3c(cc2c1=O)OCO3", "Y"),
    ("CCc1noc(NC(C)=O)c1-c1ccc(OC)c(S(=O)(=O)Nc2ccc(C#N)cc2)c1", "Y"),
]

Threshold query (RP-LC retention time >= 700 s) on CCC(C(=O)NCc1ccc(C)o1)n1nc(C)c2c(C)n(-c3ccccc3)nc2c1=O (stereo not given)
Y

---

Protocol notes: gradient 5% acetonitrile 3 min, to 50% in 2 min, to 85% in 15 min, held 3 min, 100 µL/min
Experimental conditions: column: Zorbax Extend-C18 2.1 x 50 mm; eluents: water / acetonitrile, 0.1% formic acid
Output 1 for RP-LC retention time not less than 700 s; output -1 otherwise.

Reference set (10 entries):
# Compound, Label value
records = [
    ("COc1ccc(N2CCN(C(=O)c3c(OC)cc(=O)n4c3CCCC4)CC2)cc1", -1),
    ("O=C(NC1CCN(Cc2ccccc2)CC1)c1c(OCC2CC2)cc(=O)n2c1CCCCC2", -1),
    ("CSc1cccc(NC(=O)Nc2nc(-c3ccccc3)cs2)c1", 1),
    ("CCOc1cc(=O)n2c(c1C(=O)N1CCC3(CC1)OCCO3)CCCCC2", -1),
    ("CSc1ccc(CNC(=O)C2CCN(c3cncnc3N3CCCCC3)CC2)cc1", 1),
    ("O=C(CCc1csc(NC(=O)c2cccs2)n1)NCCc1c[nH]c2ccccc12", 1),
    ("CCn1c(=O)oc2cc(-c3noc(COc4ccccc4)n3)ccc21", 1),
    ("O=C(c1noc2c1CCCCC2)N1CCN(Cc2ccc3c(c2)OCO3)CC1", -1),
    ("COc1ccc(C(=O)N2CCC[C@H]2c2nc(-c3ccccc3)n[nH]2)cn1", -1),
    ("COc1ccc(NC(=O)C2CCCN(c3nc4c(s3)c(C)nn4-c3ccc(OC)cc3)C2)cc1 (configuration not stated)", 1),
]

Threshold query (RP-LC retention time >= 700 s) on O=C(CCC1CCN(c2cc(NC3CC3)ncn2)CC1)NCCN1CCc2ccccc2C1
-1

Threshold query (RP-LC retention time >= 700 s) on CCc1ccc(S(=O)(=O)N2CCCC(Cn3cnc4cccnc43)C2)cc1 (configuration not stated)
1

Threshold query (RP-LC retention time >= 700 s) on O=C(c1nnc(-c2ccc(S(=O)(=O)N3CCCCC3)cc2)o1)N1CCc2ccccc2C1
1

Threshold query (RP-LC retention time >= 700 s) on CC(C)C(=O)N1CCC2(CC1)CCC(O)(CN(C)C)CC2
-1

Threshold query (RP-LC retention time >= 700 s) on CCCn1cc(CCNS(=O)(=O)CC)c2cccnc21
-1

Threshold query (RP-LC retention time >= 700 s) on CC(C)CC(NC(=O)Cc1ccc(Cl)cc1)C(=O)Nc1nc2ccccc2[nH]1 (configuration not stated)
1

Threshold query (RP-LC retention time >= 700 s) on CCOC(=O)c1noc2ncnc(Nc3ccccc3)c12
1

Threshold query (RP-LC retention time >= 700 s) on CCOC(=O)CNC(=O)N1CCN(c2nc3ccccc3n(Cc3ccccc3)c2=O)CC1
1

Threshold query (RP-LC retention time >= 700 s) on Cc1csc(NC(=O)CSc2ccc(-c3cccs3)nn2)n1
1

Threshold query (RP-LC retention time >= 700 s) on COC(=O)c1c(C)c(C(=O)C(C)N(C(=O)c2ccccc2Cl)C2CCCCC2)c(C)n1C (configuration not stated)
1

---

Protocol notes: gradient 5% acetonitrile 3 min, to 50% in 2 min, to 85% in 15 min, held 3 min, 100 µL/min
Experimental conditions: column: Zorbax Extend-C18 2.1 x 50 mm; eluents: water / acetonitrile, 0.1% formic acid
Metric name: RP-LC retention time (s)
One number for each entry, in s.

# Compound, Metric name, Data value
measured = [
    ("CCOC(=O)CNC(=O)N1CCN(Cc2nc3cccnc3n2-c2ccccc2)CC1", "RP-LC retention time", 585),
    ("CS(=O)(=O)N1CCC(C(=O)N2CCCCC2)Oc2ccc(Cl)cc21 (centres undefined)", "RP-LC retention time", 793),
    ("COc1ccc(NC(=O)N(C)CCc2noc(COc3cc(C)cc(C)c3)n2)cc1", "RP-LC retention time", 907),
    ("O=C(CCC1CCCN(c2cc(NC3CC3)ncn2)C1)N1CCCN(c2ncccn2)CC1 (centres undefined)", "RP-LC retention time", 618),
    ("CCCn1cc(S(=O)(=O)Nc2ccccc2F)c2cccnc21", "RP-LC retention time", 869),
    ("Cc1cc(N2CCN(C)CC2)n2nc(-c3ccc(Cl)cc3)nc2n1", "RP-LC retention time", 658),
    ("CCn1c(=O)n(CC(=O)NCCN2CCCC2)c(=O)c2cnc(-c3ccc(Cl)cc3)nc21", "RP-LC retention time", 706),
    ("CCOc1ccc(N2C(=O)C3N=NN(Cc4nc(-c5ccccc5OCC)no4)C3C2=O)cc1 (centres undefined)", "RP-LC retention time", 980),
    ("Cc1ccc(-n2cc3c(c(C(=O)NC(C)C)c2=O)CC(C)(C)CC3=O)cc1", "RP-LC retention time", 932),
    ("O=C(CN1C(=O)CCCc2cc(S(=O)(=O)N3CCCCCC3)ccc21)NCc1ccccc1", "RP-LC retention time", 905),
]

Parameter requested: RP-LC retention time. Apply to each item below.
1. COc1ccc2c(c1)C1(CCN(C(=O)Nc3cccc(C)c3)C1)C(=O)N2 (centres undefined)
2. Cc1cccc(NC(=O)Cn2c(=O)n(-c3cccc(C)c3)c(=O)c3c2cc(C)n3C)c1
3. COC1C(=O)N(CC2CC2)C12CCN(C(=O)C1CCOCC1)CC2 (centres undefined)
4. COc1ccc(CNS(=O)(=O)c2cn(C(C)C)c3ncccc23)cc1

[730, 888, 638, 841]

---

Protocol notes: gradient 5% acetonitrile 3 min, to 50% in 2 min, to 85% in 15 min, held 3 min, 100 µL/min
Experimental conditions: column: Zorbax Extend-C18 2.1 x 50 mm; eluents: water / acetonitrile, 0.1% formic acid
Hi there, I'd appreciate the recorded RP-LC retention time for every entry that follows.
Give bare numbers, in s.

# Compound, Data value
rows = [
    ("C=CCn1c(C)c(CC(=O)NCC2CCCO2)c(=O)n2nc(-c3ccccc3)nc12 (stereo not drawn)", 717),
]

Parameter requested: RP-LC retention time. Apply to each item below.
1. O=C(CN1CC=C(c2cnn(-c3ccccc3)c2)CC1)N1CCN(c2ccccc2)CC1
2. COCCN1C(=O)c2cccn2CC1CNC(=O)c1sccc1C (stereo not drawn)

[702, 689]

---

Protocol notes: gradient 5% acetonitrile 3 min, to 50% in 2 min, to 85% in 15 min, held 3 min, 100 µL/min
Experimental conditions: column: Zorbax Extend-C18 2.1 x 50 mm; eluents: water / acetonitrile, 0.1% formic acid
Metric name: RP-LC retention time (s)
Give bare numbers, in s.

Worked examples, 2 compounds total:
# Compound, Metric name, Data value
rows = [
    ("O=C(Nc1ccc(-c2cn3c(C(=O)N4CCCC4)csc3n2)cc1)c1ccccc1", "RP-LC retention time", 780),
    ("Cn1cnc(S(=O)(=O)N2CCC(C(=O)NCc3ccc(Cl)cc3)CC2)c1", "RP-LC retention time", 702),
]

// switching to the query compound
For the compound CN1C(=O)Cc2ccccc2C1C(=O)NCc1ccc(Cl)cc1 (stereo not drawn) , give its measured RP-LC retention time value.
762
